- Procedure Details: Pharmacokinetics of oral vs intra-cecal tacrolimus: blood, rectal contents, GI tissue and luminal content (Example 13)
- Set-up: species or system Yorkshire-Cross farm swine
- Experimental Setup: female, Yorkshire-Cross, swine, in vivo, po, 0.09 mg/kg, Ratio Tissue(mean)/Trough(12 hr)
Measured Quantity: Kp at 12 h
Numbers only.

**Query** Which measured Kp at 12 h value corresponds to C=CC[C@@H]1/C=C(\C)C[C@H](C)C[C@H](OC)[C@H]2O[C@@](O)(C(=O)C(=O)N3CCCC[C@H]3C(=O)O[C@H](/C(C)=C/[C@@H]3CC[C@@H](O)[C@H](OC)C3)[C@H](C)[C@@H](O)CC1=O)[C@H](C)C[C@@H]2OC [tacrolimus] ?
**Result** 0

These measurements were taken from patent US20260001946A1.
